Assay Remarks: log P by HPLC on a reversed-phase column (C 18), EEC Directive 79/831 Annex V.A8
Type: physicochemical
Run Parameters: HPLC on reversed-phase column (C 18), 40° C., 0.1% aqueous formic acid and acetonitrile, linear gradient 10% to 90% acetonitrile
Measurement Type: logP
// return just the number, without any unit appended

Past entries and their recorded results:
Compound: Cn1cc(C(=O)N(Cc2ccccc2-c2ccco2)C2CC2)c(C(F)F)c1 [I.42]
logP: 3.44

Compound: Cc1nn(C)c(C)c1-c1ccc(C(C)C)c(CN(C(=O)c2c(C(F)F)nn(C)c2F)C2CC2)c1 [I.118]
logP: 3.23

Specify measured logP for Cn1nc(C(F)F)c(C(=O)N(Cc2c(C3(C)CO3)ccc(Cl)c2Cl)C2CC2)c1Cl (stereo not drawn) [I.11] . 3.67

Look up logP of CC1CC1N(Cc1ccccc1-c1ccsc1)C(=O)c1cn(C)nc1C(F)F (stereo not drawn) [I.87] and report it. 3.48

Complete the entry with logP for Cn1nc(C(F)F)c(C(=O)N(Cc2ccccc2-c2ccsc2Cl)C2CC2)c1F [I.138] 3.92

Quickly give me recorded logP for Cc1csc(-c2ccc(Cl)cc2CN(C(=O)c2c(C(F)F)nn(C)c2F)C2CC2)c1 [I.103] 4.51

Quickly give me recorded logP for Cn1cc(C(=O)N(Cc2cc(-c3ccc(Cl)s3)ccc2Cl)C2CC2)c(C(F)F)n1 [I.144] 4.41

Provide logP value for the following compound: Cn1nc(C(F)F)c(C(=O)N(Cc2ccccc2-c2ccoc2)C2CC2)c1F [I.29] 3.23

Return logP for the following compound: Cn1nc(C(F)F)c(C(=O)N(Cc2ccccc2C23CCCCCC2O3)C2CC2)c1F (stereo not drawn) [I.26] 3.94
